The measurements presented in this section are drawn from PubChem BioAssay AID2060613.

Tested on: 233499-124-R-J3-PDC complex spheroid viability;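 also: spheroids exposed to the drug combinations for seven days; percent viability relative to DMSO vehicle control wells taken as 100%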
Test: Anticancer human tumor 233499-124-R-J3-PDC patient-derived colon adenocarcinoma cell line growth inhibition [CLK]
Settings: second compound 0.0316 µM; first compound 0.3 µM; stronger effect = lower value
The molecules listed here are annotated with their viability, T/C.
// return numeric value only (unit: %, not printed)

[
  {
    "molecule": "CC(C)CC(NC(=O)C(Cc1ccccc1)NC(=O)c1cnccn1)B(O)O (stereo unspecified) + CNC(=O)c1ccc(Nc2nc(OC3CCCC3)c3c(-c4ccc5nc(C)oc5c4)c[nH]c3n2)c(OC)c1",
    "measure-unit": "%",
    "quantitative-result": 0.17
  },
  {
    "molecule": "CC(C)CC(NC(=O)C(Cc1ccccc1)NC(=O)c1cnccn1)B(O)O (stereo unspecified) + CN1CCN(c2cc(C(=O)Nc3cc4cc(-c5cnn(C)c5)ccc4cn3)ccn2)CC1",
    "measure-unit": "%",
    "quantitative-result": 0.17
  },
  {
    "molecule": "NC(=O)C(=Cn1cnc(-c2cc(C(F)(F)F)cc(C(F)(F)F)c2)n1)c1cncnc1 + CN1CCN(c2cc(C(=O)Nc3cc4cc(-c5cnn(C)c5)ccc4cn3)ccn2)CC1",
    "measure-unit": "%",
    "quantitative-result": 35.2
  },
  {
    "molecule": "C=CC(=O)Nc1cc(Nc2nccc(-c3cn(C)c4ccccc34)n2)c(OC)cc1N(C)CCN(C)C + CN1CCN(c2cc(C(=O)Nc3cc4cc(-c5cnn(C)c5)ccc4cn3)ccn2)CC1",
    "measure-unit": "%",
    "quantitative-result": 91.8
  },
  {
    "molecule": "C=CC(=O)Nc1cc(Nc2nccc(-c3cn(C)c4ccccc34)n2)c(OC)cc1N(C)CCN(C)C + CNC(=O)c1ccc(Nc2nc(OC3CCCC3)c3c(-c4ccc5nc(C)oc5c4)c[nH]c3n2)c(OC)c1",
    "measure-unit": "%",
    "quantitative-result": 71.8
  }
]

Item NC(=O)C(=Cn1cnc(-c2cc(C(F)(F)F)cc(C(F)(F)F)c2)n1)c1cncnc1 + CNC(=O)c1ccc(Nc2nc(OC3CCCC3)c3c(-c4ccc5nc(C)oc5c4)c[nH]c3n2)c(OC)c1 ; assay system 233499-124-R-J3-PDC complex spheroid viability; viability, T/C reported as 78.2
